- Test system: Ugt1a1
- procedure summary: Induction of Ugt1a1 gene expression in wild type mouse liver at 50 mg/kg dosed through gavage daily for 4 days by qPCR method
- Format: ADME, organism-based
- Design: dose 50 mg/kg
- test settings: po, read-out: FC
measurement name: fold induction at 96 h
Just the number, please.

Req: Field: fold induction at 96 h (Ugt1a1). Entry: CC(=O)[C@H]1[C@H](C#N)C[C@H]2[C@@H]3CC=C4C[C@@H](O)CC[C@]4(C)[C@H]3CC[C@@]21C [PREGNENOLONE CARBONITRILE]
Resp: 3.1

###

- Test system: Cyp2c55
- procedure summary: Induction of Cyp2c55 gene expression in male PXR null mouse liver at 500 mg/kg for 7 to 14 days dosed through vitamin E-deficient base diet by qPCR method
- Format: ADME, organism-based
- Design: dose 500 mg/kg
- test settings: po, read-out: FC
measurement name: fold induction
Just the number, please.

Req: Look up fold induction for this compound: CC(=O)Oc1c(C)c(C)c2c(c1C)CCC(C)(CCCC(C)CCCC(C)CCCC(C)C)O2 (racemic) [alpha-TOCHOPHERYL ACETATE]
Resp: 2.2
